Each recorded value in this set is attributed to patent US8835476B2.

Test system: E. faecalis ATCC 29212
Assay: Broth microdilution MIC, ATCC strains
Format: cell-based
Settings: Enterococcus faecalis, ATCC29212, E. faecalis, ATCC number not given; read-out: MIC (growth inhibition, microdilution method)
property.measured: MIC (µg/mL)
Express it in µg/mL; write the number only.

Entry Cn1nnnc1-c1cc(C(=O)O)sc1C(=O)O , MIC reported as 8

MIC in this record for Cn1nnc(-c2cc(C(=O)O)sc2-c2ccc(F)cc2)n1 : 8

MIC recorded for this compound, Fc1ccc(-c2cc(-c3nnn[nH]3)c(-c3ccc(F)cc3)s2)cc1 , is 32

Looking up COC(=O)c1cc(-c2nnn(C)n2)c(C(=O)OC)s1 , I found its MIC recorded as 8

Short answer for Cn1nnc(-c2cc(C(=O)O)sc2C(=O)O)n1 : MIC was 8
